Source of measurements: patent US20250296971A1

# TESTED_TARGET: GIPR (CHO-K1-hGIPR cells) (Homo sapiens, UniProt P48546)
# Construct: host or cells: CHO-K1
# Sequence (P48546 22-466): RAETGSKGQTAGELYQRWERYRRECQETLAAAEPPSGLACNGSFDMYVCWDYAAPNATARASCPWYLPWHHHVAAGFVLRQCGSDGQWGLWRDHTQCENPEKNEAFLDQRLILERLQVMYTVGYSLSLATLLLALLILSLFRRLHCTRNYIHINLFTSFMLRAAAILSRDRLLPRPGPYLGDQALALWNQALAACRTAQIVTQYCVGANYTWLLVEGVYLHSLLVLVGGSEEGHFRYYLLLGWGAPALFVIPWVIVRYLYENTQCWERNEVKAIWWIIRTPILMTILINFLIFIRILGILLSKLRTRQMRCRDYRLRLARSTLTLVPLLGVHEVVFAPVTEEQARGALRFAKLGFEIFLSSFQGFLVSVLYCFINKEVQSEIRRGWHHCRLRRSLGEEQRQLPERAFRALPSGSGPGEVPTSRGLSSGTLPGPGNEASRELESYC
# METHOD_NOTES: FACS binding assay
# MEASUREMENT_CONDITIONS: competition with 20 nM GIP-057, 4° C., 1 hour, read-out: pIC50 Category (converted)
*1 amine or outer side, *2 acyl side, *3 side chain or, on linkers, in order; H or OH if unused. Where a SMILES comes first, the peptide text is derived from it. Bridges are numbered along the chain shown (N, C = ends). [ ]: non-standard residue; d: D form. Trp(5-Cl) = N[C@@H](Cc1c[nH]c2ccc(Cl)cc12)C(=O)O; Pyridine(2,6-diCH2) = c1cc(C[*:1])nc(C[*:2])c1; Hyp = O=C(O)[C@@H]1C[C@@H](O)CN1; Ac5c = NC1(C(=O)O)CCCC1; Thp = NC1(C(=O)O)CCOCC1
Entries and their IC50 values follow.
ENDPOINT: IC50

INSERT INTO measurements (compound, recorded_measurement) VALUES
  ('CC[C@H](C)[C@@H]1NC(=O)[C@H](CC(C)C)NC(=O)C2(CCCC2)NC(=O)[C@@H](NC(=O)[C@@H](CC(C)C)NC(=O)[C@H](CCC(=O)O)NC(=O)[C@@H]2C[C@@H](O)CN2C(=O)[C@H](Cc2c[nH]c3ccc(Cl)cc23)NC(=O)[C@H](Cc2c[nH]c3ccccc23)NC(=O)[C@H](CC(=O)O)NC(C)=O)CSCc2cccc(n2)CSC[C@@H](C(N)=O)NC1=O [GIP-203] (Ac-DW[Trp(5-Cl)][Hyp]E[dL]C[Ac5c]LIC-NH2; linker 7-11 via Pyridine(2,6-diCH2))', '< 0.01 µM'),
  ('CC[C@H](C)[C@@H]1NC(=O)[C@H](CC(C)C)NC(=O)C2(CCOCC2)NC(=O)[C@@H](NC(=O)[C@@H](NC(=O)[C@H](CCC(=O)O)NC(=O)[C@@H]2C[C@@H](O)CN2C(=O)[C@H](Cc2c[nH]c3ccc(Cl)cc23)NC(=O)[C@H](Cc2c[nH]c3ccccc23)NC(=O)[C@H](CC(=O)O)NC(C)=O)[C@@H](C)CC)CSCc2cccc(n2)CSC[C@@H](C(N)=O)NC1=O [GIP-218] (Ac-DW[Trp(5-Cl)][Hyp]EIC[Thp]LIC-NH2; linker 7-11 via Pyridine(2,6-diCH2))', '< 0.01 µM');
